FYI, the data here is from patent US10683278B2.

Molecular target: FLT-3 kinase domain recombinant protein (Homo sapiens)
Construct: 50 μL FLT-3 kinase domain recombinant protein diluted with reaction buffer to initiate the reaction
Test: Inhibition rate on FLT3 kinase (ELISA)
Assay type: biochemical
Settings: compound 1000 nM; two values per compound; read-out: Inhibition rate (%) against receptor tyrosine kinase FLT-3
inhibition at 1 µM overview
Write the answer as a number in %, unit excluded.

CCc1ccc2c(c1)c(=O)c(C(=O)Nc1ccc(Oc3ncnc4cc(OCCCN5CCN(C)CC5)c(OC)cc34)c(F)c1)c(C)n2C	98
COc1cc2ncnc(Oc3ccc(NC(=O)c4cn(C5CC5)c5cc(N6CCNCC6)c(F)cc5c4=O)cc3F)c2cc1OC	83.5

Alright, here's another molecule for you.
Look up inhibition at 1 µM for this molecule: COc1cc2ncnc(Oc3ccc(NC(=O)c4cn5c6c(c(N7CCC(O)CC7)c(F)cc6c4=O)CCC5C)cc3F)c2cc1OC (stereo not drawn)
79.5

* * *

Target: FLT-3 kinase domain recombinant protein (Homo sapiens, UniProt P36888)
Construct: 50 μL FLT-3 kinase domain recombinant protein diluted with reaction buffer to initiate the reaction
Sequence (P36888 610-943 limits assumed): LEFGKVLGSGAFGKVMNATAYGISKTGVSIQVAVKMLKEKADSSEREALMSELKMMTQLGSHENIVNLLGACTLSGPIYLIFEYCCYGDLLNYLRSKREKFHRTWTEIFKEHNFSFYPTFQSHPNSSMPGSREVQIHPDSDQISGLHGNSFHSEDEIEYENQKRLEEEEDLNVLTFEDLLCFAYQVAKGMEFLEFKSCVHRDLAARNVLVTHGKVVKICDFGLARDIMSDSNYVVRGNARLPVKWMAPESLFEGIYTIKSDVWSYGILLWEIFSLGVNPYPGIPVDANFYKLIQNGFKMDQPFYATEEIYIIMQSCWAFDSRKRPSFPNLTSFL
Assay: Inhibition rate on FLT3 kinase (ELISA)
Assay type: biochemical
Conditions: compound 100 nM; two values per compound; read-out: Inhibition rate (%) against receptor tyrosine kinase FLT-3
Kind request: treat 70% as inclusive, so inhibition at 0.1 µM at 70% or higher is rule met, anything lower is rule not met.

Example results:
CCc1ccc2c(c1)c(=O)c(C(=O)Nc1ccc(Oc3ncnc4cc(OCCN5CCCC5)c(OC)cc34)c(F)c1)c(C)n2C	rule met
Cc1c(C(=O)Nc2ccc(Oc3ncnc4[nH]cc(-c5ccccc5)c34)c(F)c2)c(=O)c2cc(C(F)(F)F)ccc2n1C	rule not met
CCc1ccc2c(c1)c(=O)c(C(=O)Nc1ccc(Oc3ccnc(N)c3Cl)c(F)c1)c(C)n2C	rule not met
Cc1c(C(=O)Nc2ccc(Oc3ncnc4[nH]cc(-c5ccccc5)c34)c(F)c2)c(=O)c2cc(C(C)C)ccc2n1C	rule not met
COc1cc2ncnc(Oc3ccc(NC(=O)c4cn(C5CC5)c5cc(N6CCNCC6)c(F)cc5c4=O)cc3F)c2cc1OC	rule not met

Item CCc1ccc2c(c1)c(=O)c(C(=O)Nc1ccc(Oc3ncnc4[nH]cc(-c5ccc(OC)cc5)c34)c(F)c1)c(C)n2C with inhibition at 0.1 µM of 70% or above?
rule met

Test whether the compound CCc1ccc2c(c1)c(=O)c(C(=O)Nc1ccc(Oc3ncnc4cc(OCCCN5CCN(C)CC5)c(OC)cc34)c(F)c1)c(C)n2C records inhibition at 0.1 µM of 70% or higher.
rule met

API: above_or_equal(metric=inhibition at 0.1 µM, cutoff=70%) for item Cc1c(C(=O)Nc2ccc(Oc3ncnc4[nH]cc(-c5ccccc5)c34)c(F)c2)c(=O)c2cc(F)ccc2n1C
rule not met

Evaluate CCc1ccc2c(c1)c(=O)c(C(=O)Nc1ccc(Oc3ncnc4[nH]cc(-c5ccccc5)c34)c(F)c1)c(C)n2C : inhibition at 0.1 µM at minimum 70%?
rule met

Does the compound CCc1ccc2c(c1)c(=O)c(C(=O)Nc1ccc(Oc3ncnc4cc(OC)c(OC)cc34)c(F)c1)c(C)n2C have recorded inhibition at 0.1 µM that is 70% or more?
rule met

Hi, just wondering whether CCc1ccc2c(c1)c(=O)c(C(=O)Nc1ccc(Oc3ncnc4[nH]cc(-c5cnn(C)c5)c34)c(F)c1)c(C)n2C shows inhibition at 0.1 µM of 70% or higher.
rule met

Identify whether the reported inhibition at 0.1 µM of the following compound is 70% or greater: CCc1ccc2c(c1)c(=O)c(C(=O)Nc1ccc(Oc3ncnc4cc(OCCCN5CCOCC5)c(OC)cc34)c(F)c1)c(C)n2C
rule met
